Test system: Sam68 (KHDRBS1)
PROTOCOL DESCRIPTION: Sam68 small-molecule binders, primary screen, biochemical, small-molecule microarray, 635 nm fluorescence (AID 1125);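 also: score merges 667 nm channel intensity with signal to noise over triplicate slides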
CONDITION DESCRIPTION: small-molecule microarray binding, higher = more signal
MEASURED ATTRIBUTE: composite z-score

* CCCNC(=O)[C@@]1(Sc2ccc(C)cc2)CC(=O)N(C(C)C)[C@@H]1c1ccc(CO)cc1I | 0.58

For the compound [N-]=[N+]=NCc1ccccc1[C@H]1OC(c2ccc(OCCCO)cc2)=N[C@@]1(CCS(=O)(=O)c1ccccc1)C(=O)NCc1ccccc1 , report composite z-score.
1.24

For the compound CN1C(=O)C2C(C1=O)C1C=C(CCCO)C2C(C2CC2)N1Cc1cc2c(cc1Br)OCO2 (configuration not stated) , report composite z-score.
1.18

For the compound COc1ccc(C(=O)Nc2cccc(CN3C(=O)[C@@]4(O[C@@H](CC(=O)N(CCO)Cc5ccccc5)[C@H]([Si](C)(C)c5ccc(OC)cc5)[C@H]4C)c4ccccc43)c2)cc1 , report composite z-score.
1.19

* * *

PROTOCOL DESCRIPTION: PSAC antagonists in infected red cells, primary screen, cell-based, P. falciparum Indochina, OD700, 18 h (AID 1157)
CONDITION DESCRIPTION: P. falciparum Indochina infected erythrocytes, osmotic lysis OD700, 18 h; higher = more signal, called active from +8 up or from −8 down
Each entry below lists one item and its recorded z-score value.
Answer using only a numeral; do not append any unit.

Solved entries (count: 3):
* CCOC(=O)C[C@H]1[C@H](OC(=O)c2ccccc2-c2ccccc2)[C@@H](NC(=O)c2ccc3ccccc3n2)c2cc(OCCCO)ccc2N1C(=O)c1ccccc1 | 0.305
* COc1ccc([Si](C)(C)[C@@H]2[C@@H](CC(=O)N3Cc4ccccc4C[C@H]3CO)O[C@]3(C(=O)N(c4ccccc4)c4ccccc43)[C@H]2C)cc1 | 1.65
* CC(C)C[C@@H]1NC(=O)[C@@H]2C[C@H](C(=O)NCCCCCC[N+](C)(C)C)[C@H](c3cccc(OCCO)c3)N2C1=O | 0.376

For the molecule CCc1cccc(NC(=O)O[C@H]2[C@H](OC(=O)Nc3ccccc3)[C@H](OC(=O)Nc3ccccc3)[C@@H](OC)O[C@@H]2CO)c1 , report z-score.
1.92

* * *

Tested on: PRMT1 (protein arginine N-methyltransferase 1)
PROTOCOL DESCRIPTION: PRMT1 binders on small-molecule microarrays, primary screen, biochemical, small-molecule microarray, 635 nm fluorescence (AID 1088);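 also: binding of Prmt1 protein to compounds spotted on small-molecule microarray slides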
CONDITION DESCRIPTION: small-molecule microarray binding, higher = more signal
Each entry below lists one item and its recorded composite z-score value.

Solved entries (count: 2):
• NC(=O)NCC#Cc1ccc2c(c1)[C@]1(C(=O)N2)[C@H](C(=O)N2CCN(c3ncccn3)CC2)[C@H]2C(=O)O[C@H](c3ccccc3)[C@H](c3ccccc3)N2[C@@H]1c1ccc(OCCO)cc1 = 1.18
• COc1cc2c(cc1OC)CN(C(=O)[C@@H]1[C@H]3C(=O)O[C@H](c4ccccc4)[C@H](c4ccccc4)N3[C@H](c3ccc(O)cc3)[C@@]13C(=O)Nc1ccc(C#CCCO)cc13)CC2 = 1.34

In the following, a different compound is considered.
For the compound O=C1OCCC=C[C@H]2OC34C=CCN(c5ccc(Cl)cc5)C(=O)[C@H]3N(CCCCCCO)C(=O)[C@@H]4C12 (stereo partly drawn) , report composite z-score.
0.117
